# TARGET_OF_ASSAY: angiotensin II AT1 receptor
# ASSAY_PROTOCOL: Assay A: Angiotensin II binding activity (125I-AII displacement, rat uterine membrane preparation)
ASSAY_ENDPOINT: pIC50
Numbers only, as −log10 of the molar value.

[
  {
    "COMPOUND": "CCCCc1cn(-c2c(C)cc(C(C)(C)C)cc2C)c(=O)n1Cc1ccc(-c2ccccc2-c2nnn[nH]2)nc1",
    "MEASUREMENT": 7.08
  },
  {
    "COMPOUND": "CCCCc1nc(CCC(C)C)nn1Cc1ccc(-c2ccccc2-c2nnn[nH]2)cc1",
    "MEASUREMENT": 8.40
  },
  {
    "COMPOUND": "CCCCn1cc(CCC(C)C)n(Cc2ccc(-c3ccccc3-c3nnn[nH]3)nc2)c1=O",
    "MEASUREMENT": 7.54
  },
  {
    "COMPOUND": "CCCn1nc(C(OC)OC)nc1Cc1ccc(-c2ccccc2-c2nnn[nH]2)nc1",
    "MEASUREMENT": 6.74
  },
  {
    "COMPOUND": "CCCCc1cn(-c2c(C)cc(C(C)(C)C)cc2C)c(=O)n1Cc1ccc(-c2ccccc2-c2nnn[nH]2)cc1",
    "MEASUREMENT": 6.57
  }
]

Go through the list and state pIC50 for each entry.
1. CCCCc1cn(-c2c(C)cccc2C)c(=O)n1Cc1ccc(-c2ccccc2-c2nnn[nH]2)nc1
2. CCCCc1nc(CC)nn1Cc1ccc(-c2ccccc2-c2nnn[nH]2)cc1
3. CCCCc1nc(CCc2ccccc2)n(Cc2ccc(-c3ccccc3-c3nnn[nH]3)cc2)n1
4. CCCCc1nc(-c2ccccc2OC)nn1Cc1ccc(-c2ccccc2-c2nnn[nH]2)nc1
5. CCCCc1nc(Cc2ccc(-c3ccccc3-c3nnn[nH]3)nc2)n(CC(C)(C)C)n1
6. CCCCc1nc(Cc2ccccc2)nn1Cc1ccc(-c2ccccc2-c2nnn[nH]2)cc1
7. CCCCc1nc(C(=O)O)nn1Cc1ccc(-c2ccccc2-c2nnn[nH]2)cc1
8. CCCCc1cn(CCCC)c(=O)n1Cc1ccc(-c2ccccc2-c2nnn[nH]2)cn1

Outgoing:
1. 8.30
2. 8.00
3. 6.32
4. 6.96
5. 5.96
6. 7.80
7. 7.00
8. 7.85

For each of the items listed, what is its pIC50?
1. CCCCc1nn(CC2CC2)c(=O)n1Cc1ccc(-c2ccccc2-c2nn[nH]n2)cc1
2. CCCCc1cn(CCCC)c(=O)n1Cc1ccc(-c2ccccc2-c2nnn[nH]2)cc1
3. CCCCc1cn(-c2ccccc2C(C)C)c(=O)n1Cc1ccc(-c2ccccc2-c2nnn[nH]2)cc1
4. CCCCn1nc(C(F)(F)CC)nc1Cc1ccc(-c2ccccc2-c2nnn[nH]2)nc1
5. CCCc1nc(CCC)n(Cc2ccc(-c3ccccc3-c3nnn[nH]3)cc2)n1
6. CCCCn1nc(C(C#N)CCC)n(Cc2ccc(-c3ccccc3-c3nn[nH]n3)cc2)c1=O (stereo not drawn)

Outgoing:
1. 7.82
2. 7.92
3. 7.01
4. 6.38
5. 8.22
6. 7.32

Hey, quick one: what's pIC50 for each of these?
1. CCCCc1nc(C(F)F)nn1Cc1ccc(-c2ccccc2-c2nnn[nH]2)cc1
2. CCCCc1cn(CCCC)c(=O)n1Cc1ccc(-c2cnccc2-c2nnn[nH]2)cc1

Outgoing:
7.68
6.80
